B1: TRIM43 (parent)
chain: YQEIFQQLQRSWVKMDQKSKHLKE

Variants of: B1
Assay: protein stability index of a GFP-peptide fusion (GPS, HEK-293T) (PSI 1-6); higher = more stable;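 note: lentivirally expressed fusions sorted by FACS into six bins by GFP to DsRed ratio, PSI derived from sequencing read proportions per bin multiplied by bin number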
Settings: c terminus: a fixed tail appended
Reported protein stability index values for the following variants.

Previously resolved entries follow.
variant_identifier=Y1E quantity_kind="protein stability index" recorded_measurement=4.08
variant_identifier=S19I quantity_kind="protein stability index" recorded_measurement=3.05
variant_identifier=K20F quantity_kind="protein stability index" recorded_measurement=2.56
variant_identifier=L22G quantity_kind="protein stability index" recorded_measurement=2.6
variant_identifier=S19D quantity_kind="protein stability index" recorded_measurement=2.68
variant_identifier=D16W quantity_kind="protein stability index" recorded_measurement=2.96
variant_identifier=W12E quantity_kind="protein stability index" recorded_measurement=3.16
variant_identifier=M15V quantity_kind="protein stability index" recorded_measurement=2.13
variant_identifier=Y1C quantity_kind="protein stability index" recorded_measurement=1.56
variant_identifier=M15F quantity_kind="protein stability index" recorded_measurement=1.99

The variant Y1R showed protein stability index equal to 2.96

protein stability index reported for this variant Y1A : 1.86

Given item E24F , the value recorded as its protein stability index is 1.92

Entry E3K ; protein stability index = 1.76

// field: protein stability index; key: M15L ; value = 2

In plain terms, K20W has a documented protein stability index of 2.42
